- target: Pax6 DNA-binding domain (BD-Pax6) (Mus musculus (B6), UniProt P63015 190-289)
- Sequence (P63015 190-289): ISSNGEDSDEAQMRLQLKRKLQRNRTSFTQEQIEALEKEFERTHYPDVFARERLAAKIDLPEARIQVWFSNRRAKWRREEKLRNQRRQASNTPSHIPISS
- protocol_description: EMSA; 10% glycerol, 20 mM HEPES pH 7.8, 45 mM KCl, 10 mM NaCl, 1 mM EDTA, 1 mM DTT, 0.2 ug/uL BSA, 0.1% NP-40, 50 ng poly-dIdC; 20 ng each GST protein; room temperature 30 min (heterodimers 4 C); 6% PAGE 0.25x TBE
- measurement_context: protein: recombinant; tags: GST (N-terminal, pGEX-6P-1); label: 32P-dCTP fill-in of the 5' (dG)5 overhangs of both strands (Methods; control probes are given with GGG)
measured_attribute: binding result

| binder | binding result |
| --- | --- |
| 39 (dsDNA) DNA 1: GGGGGTTCAGGTTTTTGTAGGAACTTAAATTTTATGATTAGCCCCC DNA 2: GGGGGCTAATCATAAAATTTAAGTTCCTACAAAAACCTGAACCCCC | binds |
| 97 (dsDNA) DNA 1: GGGGGTAGATGCTACAAAAGATACTGATTAAAACCCAAATGCCCCC DNA 2: GGGGGCATTTGGGTTTTAATCAGTATCTTTTGTAGCATCTACCCCC | binds |
| 43 (dsDNA) DNA 1: GGGGGAGGAGTGCTTTGTAAAAATAACTTCTATGTCCCCC DNA 2: GGGGGACATAGAAGTTATTTTTACAAAGCACTCCTCCCCC | no binding |
| 116 (dsDNA) DNA 1: GGGGGAAGGCCAGACTAATCTACAAAGTGAGTTCCCCCC DNA 2: GGGGGGAACTCACTTTGTAGATTAGTCTGGCCTTCCCCC | no binding |
| 46 (dsDNA) DNA 1: GGGGGTTATTTCACAAAATCAACAAATCAAAAAGCCCCC DNA 2: GGGGGCTTTTTGATTTGTTGATTTTGTGAAATAACCCCC | binds |
| 19 (dsDNA) DNA 1: GGGGGGAAGGAAAATTGTTCCCTGACATTTTTGAACTGGGCCCCC DNA 2: GGGGGCCCAGTTCAAAAATGTCAGGGAACAATTTTCCTTCCCCCC | no binding |
| 8 (dsDNA) DNA 1: GGGGGGCTGTAACAGAATACCTGACAAAAGCAACTTCCCCC DNA 2: GGGGGAAGTTGCTTTTGTCAGGTATTCTGTTACAGCCCCCC | no binding |
| 20 (dsDNA) DNA 1: GGGGGCTCAGAGCTAGAAATATTTGTGGAATGGGCCCCC DNA 2: GGGGGCCCATTCCACAAATATTTCTAGCTCTGAGCCCCC | no binding |

Turning to the following binder.
input: Which binding result reading was recorded for the binder 96 (dsDNA) DNA 1: GGGGGACATAGACACAAATAGCAGACAATGACCTTGACCCCC DNA 2: GGGGGTCAAGGTCATTGTCTGCTATTTGTGTCTATGTCCCCC ?
output: no binding

Taken from paper PMC3713010.
